List of pEC50 values.
ASSAYED_SYSTEM: Histamine H4 receptor (Mus musculus)
Sequence (Q91ZY2 whole entry): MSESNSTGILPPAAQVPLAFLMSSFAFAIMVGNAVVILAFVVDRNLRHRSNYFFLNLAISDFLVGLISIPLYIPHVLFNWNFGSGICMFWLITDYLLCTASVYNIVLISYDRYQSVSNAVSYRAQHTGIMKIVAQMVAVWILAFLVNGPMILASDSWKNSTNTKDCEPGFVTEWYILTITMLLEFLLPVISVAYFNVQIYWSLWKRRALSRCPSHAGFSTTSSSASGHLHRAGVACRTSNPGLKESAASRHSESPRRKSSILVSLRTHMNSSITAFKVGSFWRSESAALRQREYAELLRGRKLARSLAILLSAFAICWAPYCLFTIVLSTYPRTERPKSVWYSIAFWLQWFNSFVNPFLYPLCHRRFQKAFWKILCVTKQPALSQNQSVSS
RUN_DESCRIPTION: Agonist activity at mouse SF-His6-tagged histamine H4 receptor expressed in HEK293 cells assessed as inhibition of forskolin-stimulated response incubated for 5 hrs by luciferase reporter gene assay
pEC50: −log10 of the molar value.
REPORTED_PROPERTY: pEC50

{"columns": ["STRUCTURE_SMILES_STRING", "REPORTED_PROPERTY", "TEST_VALUE"],
 "data": [
  ["N#C/N=C(/NCCSc1ccccc1)NC[C@@H]1CC[C@@H](c2c[nH]cn2)C1", "pEC50", 6.23],
  ["CN/C(=N\\C#N)NC[C@@H]1CC[C@@H](c2c[nH]cn2)C1", "pEC50", 5.44],
  ["CN/C(=N\\C#N)NC[C@H]1CC[C@H](c2c[nH]cn2)C1", "pEC50", 6.27],
  ["N#C/N=C(/NCCSc1ccccc1)NC[C@H]1CC[C@H](c2c[nH]cn2)C1", "pEC50", 6.78]
]}

###

ASSAYED_SYSTEM: Histamine H3 receptor (Homo sapiens, UniProt Q9Y5N1)
Sequence (Q9Y5N1 whole entry): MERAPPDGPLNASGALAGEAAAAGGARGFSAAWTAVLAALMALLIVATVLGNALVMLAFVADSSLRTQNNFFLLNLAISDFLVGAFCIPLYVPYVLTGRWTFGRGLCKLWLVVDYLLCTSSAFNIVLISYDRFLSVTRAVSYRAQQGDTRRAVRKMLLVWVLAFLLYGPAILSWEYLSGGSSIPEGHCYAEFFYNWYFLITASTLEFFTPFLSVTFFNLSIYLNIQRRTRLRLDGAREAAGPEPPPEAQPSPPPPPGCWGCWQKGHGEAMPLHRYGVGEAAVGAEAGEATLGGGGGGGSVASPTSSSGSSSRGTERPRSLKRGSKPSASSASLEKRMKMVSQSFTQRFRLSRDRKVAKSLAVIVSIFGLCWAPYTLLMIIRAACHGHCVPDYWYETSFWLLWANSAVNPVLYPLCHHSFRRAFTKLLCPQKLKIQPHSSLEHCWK
RUN_DESCRIPTION: Intrinsic activity at human histamine H3 receptor expressed in sf9 cell membrane co-expressing mammalian Galphai2 and Gbeta1gamma2 at 10 uM incubated for 90 mins by [35S]GTPgammaS binding assay relative to histamine
Assay type: functional
List of Intrinsic activity values.

{"columns": ["COMPOUND", "Intrinsic activity"],
 "data": [
  ["N#C/N=C(/NCCOc1ccccc1)NC[C@@H]1CC[C@H](c2c[nH]cn2)C1 (racemic)", 0],
  ["N#C/N=C(/NCCCc1ccccc1)NC[C@H]1CC[C@H](c2c[nH]cn2)C1 (racemic)", -0.19],
  ["N#C/N=C(/NCCSc1ccccc1)NC[C@H]1CC[C@H](c2c[nH]cn2)C1", 0],
  ["Cc1nc[nH]c1CCN", 0.7],
  ["CCC(=O)/N=C(\\N)NCCCc1c[nH]cn1", 0.4]
]}

###

ASSAYED_SYSTEM: Histamine H3 receptor (Homo sapiens)
RUN_DESCRIPTION: Antagonist activity at human histamine H3 receptor expressed in sf9 cell membrane co-expressing mammalian Galphai2 and Gbeta1gamma2 assessed as inhibition of histamine-induced [35S]GTPgammaS binding incubated for 90 mins
Assay type: functional
REPORTED_PROPERTY: Kb (nM)

{"columns": ["COMPOUND", "REPORTED_PROPERTY", "MEASURE_UNIT", "TEST_VALUE"],
 "data": [
  ["N#C/N=C(/NCCSc1ccccc1)NC[C@@H]1CC[C@@H](c2c[nH]cn2)C1", "Kb", "nM", 143],
  ["N#C/N=C(/NCCSc1ccccc1)N[C@H]1CC[C@@H](c2c[nH]cn2)CC1", "Kb", "nM", 1900],
  ["N#C/N=C(/NCCNc1ccccc1)NC[C@@H]1CC[C@H](c2c[nH]cn2)C1 (racemic)", "Kb", "nM", 402],
  ["N#C/N=C(/NCCSc1ccccc1)NC[C@H]1CC[C@@H](c2c[nH]cn2)C1", "Kb", "nM", 528],
  ["N#C/N=C(/NCCSc1ccccc1)NC[C@H]1CC[C@H](c2c[nH]cn2)C1 (racemic)", "Kb", "nM", 246],
  ["CN/C(=N\\C#N)NC[C@H]1CC[C@@H](c2c[nH]cn2)C1", "Kb", "nM", 2810],
  ["N#C/N=C(/NCCSc1ccccc1)N[C@H]1CC[C@H](c2c[nH]cn2)CC1", "Kb", "nM", 180],
  ["N#C/N=C(/NCCSc1ccccc1)NC[C@@H]1CC[C@H](c2c[nH]cn2)C1 (racemic)", "Kb", "nM", 162],
  ["N#C/N=C(/NCCNc1ccccc1)NC[C@H]1CC[C@H](c2c[nH]cn2)C1 (racemic)", "Kb", "nM", 408]
]}

From: ChEMBL document CHEMBL3804756
